- Tested on: Friend Lenkemia Virus (FLV)
- methodNotes: Anti-Friend Leukemia Virus plaque inhibition in FG-10 cells
- Assay type: cell-based
- conditionNotes: read-out: Azidothymidine ED50

{"chemSmiles": "Cc1cn([C@H]2C[C@H](N=[N+]=[N-])[C@@H](CO)O2)c(=O)[nH]c1=O", "measurementUnit": "nM", "EC50": 5}

###

- Tested on: E. coli CN314
- methodNotes: MIC determination of each drug alone
- Assay type: cell-based
- conditionNotes: Escherichia coli; test drugs alone; E. coli CN314; read-out: MIC
# MIC listing for each entry below

{"chemSmiles": "CC[C@H]1OC(=O)[C@H](C)[C@@H](O[C@H]2C[C@@](C)(OC)[C@@H](O)[C@H](C)O2)[C@H](C)[C@@H](O[C@@H]2O[C@H](C)C[C@H](N(C)C)[C@H]2O)[C@](C)(O)C[C@@H](C)C(=O)[C@H](C)[C@@H](O)[C@]1(C)O", "targetUnderTest": "E. coli CN314", "MIC / µg/mL": 25}
{"chemSmiles": "Cc1cn([C@H]2C[C@H](N=[N+]=[N-])[C@@H](CO)O2)c(=O)[nH]c1=O", "targetUnderTest": "E. coli CN314", "MIC / µg/mL": 1}
{"chemSmiles": "CO[C@H]1/C=C/O[C@@]2(C)Oc3c(C)c(O)c4c(O)c(c(/C=N/N5CCN(C)CC5)c(O)c4c3C2=O)NC(=O)/C(C)=C\\C=C\\[C@H](C)[C@H](O)[C@@H](C)[C@@H](O)[C@@H](C)[C@H](OC(C)=O)[C@@H]1C", "targetUnderTest": "E. coli CN314", "MIC / µg/mL": 6.2}
{"chemSmiles": "O=C(N[C@H](CO)[C@H](O)c1ccc([N+](=O)[O-])cc1)C(Cl)Cl", "targetUnderTest": "E. coli CN314", "MIC / µg/mL": 3.1}
{"chemSmiles": "NC[C@H]1O[C@H](O[C@H]2[C@H](O)[C@@H](O[C@H]3O[C@H](CO)[C@@H](O)[C@H](N)[C@H]3O)[C@H](N)C[C@@H]2N)[C@H](N)C[C@@H]1O", "targetUnderTest": "E. coli CN314", "MIC / µg/mL": 0.4}
{"chemSmiles": "CC(=O)O[C@H]1C[C@@]2(C)[C@@H](C[C@@H](O)[C@H]3[C@@]4(C)CC[C@@H](O)[C@@H](C)[C@@H]4CC[C@@]32C)/C1=C(\\CCC=C(C)C)C(=O)O", "targetUnderTest": "E. coli CN314", "MIC / µg/mL": 1000}
{"chemSmiles": "Cc1cc(C)nc(NS(=O)(=O)c2ccc(N)cc2)n1", "targetUnderTest": "E. coli CN314", "MIC / µg/mL": 32}
{"chemSmiles": "CCC[C@@H]1C[C@@H](C(=O)N[C@@H]([C@H]2O[C@H](SC)[C@H](O)[C@@H](O)[C@H]2O)[C@H](C)Cl)N(C)C1", "targetUnderTest": "E. coli CN314", "MIC / µg/mL": 100}

Where do the numbers come from? From patent EP0594223B1.
